# logP values compiled below
- experiment: Partition coefficient, log P of the compound
- Format: physicochemical
- particulars: octanol/water

- test-smiles: "CCCCc1cccc2c(C3=C(Br)C(=O)NC3=O)c(-c3ccccc3)[nH]c12"
  logP: 3.88
- test-smiles: "CCCCCCc1ccc2[nH]c(-c3ccccc3)c(C3=C(Br)C(=O)NC3=O)c2c1"
  logP: 4.39
- test-smiles: "O=C(CCCCCc1[nH]c2ccccc2c1C1=C(Br)C(=O)NC1=O)Nc1ccccc1"
  logP: 2.68
- test-smiles: "COc1ccc2[nH]c(-c3ccccc3)c(C3=C(Br)C(=O)NC3=O)c2c1"
  logP: 2.48
- test-smiles: "CCCCCc1ccc2[nH]c(-c3ccccc3)c(C3=C(Br)C(=O)NC3=O)c2c1"
  logP: 4.07
- test-smiles: "CCOc1ccc2[nH]c(-c3ccccc3)c(C3=C(Br)C(=O)NC3=O)c2c1"
  logP: 2.77
- test-smiles: "CCCCCCCCOc1ccc(-c2[nH]c3ccccc3c2C2=C(Br)C(=O)NC2=O)cc1"
  logP: 5.21
- test-smiles: "Cc1cccc2c(C3=C(Br)C(=O)NC3=O)c(-c3ccccc3)[nH]c12"
  logP: 3.19
- test-smiles: "CCCCCOc1ccc2[nH]c(-c3ccccc3)c(C3=C(Br)C(=O)NC3=O)c2c1"
  logP: 3.75
- test-smiles: "Cc1ccc(NC(=O)CCCc2[nH]c3ccccc3c2C2=C(Br)C(=O)NC2=O)cc1"
  logP: 2.56
- test-smiles: "COc1ccc(-c2[nH]c3ccccc3c2C2=C(Br)C(=O)NC2=O)cc1"
  logP: 2.42
- test-smiles: "CCCCCCc1ccc2[nH]c(-c3cccc(OC)c3)c(C3=C(Br)C(=O)NC3=O)c2c1"
  logP: 4.26
- test-smiles: "CCCCCc1cccc2c(C3=C(Br)C(=O)NC3=O)c(-c3ccccc3)[nH]c12"
  logP: 4.11
- test-smiles: "CCCCCCOc1ccc2[nH]c(-c3ccc(OC)cc3)c(C3=C(Br)C(=O)NC3=O)c2c1"
  logP: 4.1
- test-smiles: "CCCOc1ccc2[nH]c(-c3ccccc3)c(C3=C(Br)C(=O)NC3=O)c2c1"
  logP: 3.16
- test-smiles: "CCCCCOc1ccc(-c2[nH]c3ccccc3c2C2=C(Br)C(=O)NC2=O)cc1"
  logP: 4.2
- test-smiles: "CCCCCCOc1ccc2[nH]c(-c3cccc(OC)c3)c(C3=C(Br)C(=O)NC3=O)c2c1"
  logP: 3.92
- test-smiles: "O=C(CCCc1[nH]c2ccccc2c1C1=C(Br)C(=O)NC1=O)Nc1ccccc1"
  logP: 2.56
- test-smiles: "CCc1cccc2c(C3=C(Br)C(=O)NC3=O)c(-c3ccc(OC)cc3)[nH]c12"
  logP: 3.35
- test-smiles: "CCc1ccc2[nH]c(-c3cccc(OC)c3)c(C3=C(Br)C(=O)NC3=O)c2c1"
  logP: 3.35
